Value source: paper PMC7780349

# Assay Target: E. coli dihydrofolate reductase (FolA) (Escherichia coli, UniProt P0ABQ4)
# Sequence (P0ABQ4 whole entry): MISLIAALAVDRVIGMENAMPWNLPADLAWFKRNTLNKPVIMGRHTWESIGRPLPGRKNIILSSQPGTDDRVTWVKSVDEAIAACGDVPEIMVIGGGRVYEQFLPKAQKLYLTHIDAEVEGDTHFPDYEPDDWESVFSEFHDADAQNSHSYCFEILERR
# Protocol Text: Dihydrofolate reductase activity assay
# Assay type: biochemical
# Settings: read-out: IC50 against FolA; 60 μM NADPH and 100 μM DHF; Hill fit
Assay Metric: pIC50
Give bare numbers, as −log10 of the molar value.

Measured pIC50, Nc1nc(N)c2c(ccc3[nH]ccc32)n1 [IRS-10] : 7.19

====

# Assay Target: UniProt:P0ABQ4
# Protocol Text: Dihydrofolate reductase activity assay
# Format: biochemical
Assay Metric: IC50 (µM)
Answers are plain numbers, in µM.

IC50 recorded for this compound, CC(C)c1ccc(Cn2ccc3c4c(N)nc(NC5CC5)nc4ccc32)cc1 , is 8.6
